Would you kindly list CC50 for each of these compounds?
Test system: SK-MEL-28
Test: SRB colorimetric assay of cell growth and viability, SK-MEL-28
Type: cell-based, human
Settings: 48 hours exposure, SRB; read-out: LC50 MEL-28

COMPOUND: C/C=C1\NC(=O)[C@@H](Cc2ccccc2)NC(=O)[C@H](C(C)C)NC(=O)[C@H]([C@H](C)CC)NC(=O)[C@@H](NC(=O)[C@@H](NC(=O)[C@@H](CCCN)NC(=O)[C@@H]2CCCN2C(=O)[C@@H](NC(=O)[C@H](NC(=O)[C@H](NC(=O)[C@@H](NC(=O)CCCC(C)C)C(C)C)[C@H](C)O)C(C)C)C(C)C)[C@H](C)CC)[C@H](C)OC(=O)[C@@H](C(C)C)NC1=O [Compound 69]
CC50: ≥ 6.77 µM

COMPOUND: C/C=C1\NC(=O)[C@H](Cc2ccccc2)NC(=O)[C@@H](C(C)C)NC(=O)[C@@H]([C@@H](C)CC)NC(=O)[C@H](NC(=O)[C@H](NC(=O)[C@H](CCCN)NC(=O)[C@H]2CCCN2C(=O)[C@H](NC(=O)[C@@H](NC(=O)[C@@H](NC(=O)[C@H](NC(=O)CC[C@@H](C)[C@H]2CC[C@H]3[C@@H]4CC[C@@H]5C[C@H](OC(=O)C(F)(F)F)CC[C@]5(C)[C@H]4CC[C@]23C)C(C)C)[C@@H](C)OC(=O)C(F)(F)F)C(C)C)C(C)C)[C@@H](C)CC)[C@@H](C)OC(=O)[C@H](C(C)C)NC1=O [Compound 97]
CC50: 0.384 µM

// moving on: another record for CC50
Query: Can you share its CC50? I mean this compound: C/C=C1\NC(=O)[C@H](Cc2ccccc2)NC(=O)[C@@H](C(C)C)NC(=O)[C@@H]([C@@H](C)CC)NC(=O)[C@H](NC(=O)[C@H](NC(=O)[C@H](CCCN)NC(=O)[C@@H]2CCCN2C(=O)[C@H](NC(=O)[C@@H](NC(=O)[C@@H](NC(=O)[C@H](NC(=O)CC[C@@H](C)CC)C(C)C)[C@@H](C)O)C(C)C)C(C)C)[C@@H](C)CC)[C@@H](C)OC(=O)[C@H](C(C)C)NC1=O [Compound 59, [Pro^9, (4S)-MeHex^14]-KF]
Reply: ≥ 6.76 µM

Value source: patent US20070117743A1
